# target: PPARα (Homo sapiens, UniProt Q07869)
# Construct: purchased Fujikura Kasei Co., Ltd. PPARA-CBP
# Sequence (Q07869 whole entry): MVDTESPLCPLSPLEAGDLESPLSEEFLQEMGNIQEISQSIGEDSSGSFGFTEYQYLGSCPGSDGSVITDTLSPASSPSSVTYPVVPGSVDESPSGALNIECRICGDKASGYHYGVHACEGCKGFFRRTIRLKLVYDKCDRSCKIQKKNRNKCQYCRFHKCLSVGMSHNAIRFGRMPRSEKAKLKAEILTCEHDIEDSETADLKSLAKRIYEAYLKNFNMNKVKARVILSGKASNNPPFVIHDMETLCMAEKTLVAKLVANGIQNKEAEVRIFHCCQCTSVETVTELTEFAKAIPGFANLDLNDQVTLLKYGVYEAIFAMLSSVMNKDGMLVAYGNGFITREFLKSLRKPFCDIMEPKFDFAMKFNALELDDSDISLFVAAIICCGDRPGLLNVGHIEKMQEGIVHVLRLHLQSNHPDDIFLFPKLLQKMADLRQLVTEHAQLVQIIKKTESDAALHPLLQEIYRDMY
# assay-notes: Measurement of agonist activity against PPARα (EnBio RCAS for PPARα kit, PPARA-CBP)
# Format: biochemical
# study-conditions: evaluation concentration 10 μM; ratio to maximal response well (GW7647 0.5 μM); read-out: Binding ratio (%) @ 10 μM
# Description: (1) Measurement of Agonist Activity against PPARα For the measurement of agonist activity against PPARα, the absorbance was measured according to the kit protocol using EnBio RCAS for PPARα kit (PPARA-CBP, Fujikura Kasei Co., Ltd.). […] After subtracting the absorbance of the background well from the absorbance of each sample addition well, the ratio of each sample addition well to the maximal response well was calculated to evaluate the agonist activity (Binding ratio, %) against PPARα. […]
measurement-name: activation at 10 µM (%)
Give bare numbers, in %.

Example compounds with recorded activation at 10 µM:
CC(C)(Sc1ccc2ncsc2c1-c1ccc(C#N)cc1)C(=O)O [COMPOUND 1] :: 49.2
Cc1nsc2c(-c3ccc(C#N)cc3)c(SC3(C(=O)O)CCC3)ccc12 [COMPOUND 14] :: 26.5

Prompt: May I ask what activation at 10 µM has been recorded for N#Cc1ccc(-c2c(SC3(C(=O)O)CCCC3)ccc3cnsc23)cc1 [COMPOUND 11] ?
Completion: 21.7
